Entries annotated with measured IP
Organism: Rattus norvegicus
Test: Open TG-GATES - Regimen: Single
Type: toxicity, organism-based, Sprague-Dawley
Set-up: regimen Single, gender Male, age 6 weeks
Conditions: in vivo, po, 0 mg/kg, 3 h, tissue Plasma, route gavage, dose level Control

{"columns": ["compound_structure_string", "measurement_units", "IP"],
 "data": [
  ["O=C(O)c1ccccc1Nc1ccccc1", "mg/dL", 9],
  ["CCO", "mg/dL", 8.7],
  ["COc1cc2ncnc(Nc3ccc(F)c(Cl)c3)c2cc1OCCCN1CCOCC1", "mg/dL", 8.2]
]}

---

Measured Ret, listed per entry for reference.
Species: Rattus norvegicus
Assay: Open TG-GATES - Regimen: Single
Type: toxicity, organism-based, Sprague-Dawley
Design: regimen Single, gender Male, age 6 weeks
Conditions: in vivo, po, 0 mg/kg, 24 h, tissue Blood, route gavage, dose level Control
property: Ret (%)

{"columns": ["compound", "property", "measurement_units", "meas_value"],
 "data": [
  ["CN(CCOc1ccc(CC2SC(=O)NC2=O)cc1)c1ccccn1.O=C(O)/C=C\\C(=O)O (centres undefined) [ROSIGLITAZONE MALEATE]", "Ret", "%", 8],
  ["C=C[C@H]1C[N@@]2CC[C@H]1C[C@@H]2[C@@H](O)c1ccnc2ccc(OC)cc12", "Ret", "%", 6.9],
  ["O=c1ccc2ccccc2o1", "Ret", "%", 8.3],
  ["CCCCNC(=O)NS(=O)(=O)c1ccc(C)cc1 [TOLBUTAMIDE]", "Ret", "%", 7.7],
  ["CN(C)CCCN1c2ccccc2Sc2ccc(Cl)cc21", "Ret", "%", 7.4],
  ["CN(C/C=C/C#CC(C)(C)C)Cc1cccc2ccccc12", "Ret", "%", 6.3],
  ["Nc1ccc(Cc2ccc(N)cc2)cc1", "Ret", "%", 6.8],
  ["CCN(CC)C(=S)SSC(=S)N(CC)CC", "Ret", "%", 7.5],
  ["NS(=O)(=O)c1cc(C(=O)O)c(NCc2ccco2)cc1Cl [FUROSEMIDE]", "Ret", "%", 7.6],
  ["COc1cc2ncnc(Nc3ccc(F)c(Cl)c3)c2cc1OCCCN1CCOCC1", "Ret", "%", 8.2],
  ["CC(=O)[C@@]1(O)CC[C@H]2[C@@H]3C=C(Cl)C4=CC(=O)CC[C@]4(C)[C@H]3CC[C@@]21C", "Ret", "%", 7.8],
  ["O=C(O)c1ccccc1Nc1ccccc1", "Ret", "%", 7],
  ["CC(S)C(=O)NCC(=O)O (centres undefined)", "Ret", "%", 7.6],
  ["CCO", "Ret", "%", 10]
]}

---

Organism: Rattus norvegicus
Experiment: Open TG-GATES - Regimen: Daily Repeat
Assay type: toxicity, organism-based, Sprague-Dawley
Set-up: regimen Daily Repeat, gender Male, age 6 weeks
Conditions: in vivo, po, 1000 mg/kg, […], tissue Plasma, route gavage, dose level High, time 7 day
gamma-GTP values for the molecules below.

{"columns": ["molecule", "measurement_units", "gamma-GTP"],
 "data": [
  ["CC(S)C(=O)NCC(=O)O (centres undefined) [TIOPRONIN]", "IU/L", 1.8],
  ["CC(=O)[C@@]1(O)CC[C@H]2[C@@H]3C=C(Cl)C4=CC(=O)CC[C@]4(C)[C@H]3CC[C@@]21C [CHLORMADINONE]", "IU/L", 2],
  ["CCCCNC(=O)NS(=O)(=O)c1ccc(C)cc1 [TOLBUTAMIDE]", "IU/L", 0.8],
  ["O=C(O)c1ccccc1Nc1ccccc1 [FENAMIC ACID]", "IU/L", 1]
]}

---

Species on record: Rattus norvegicus
Test: Open TG-GATES - Regimen: Single
Assay type: toxicity, organism-based, Sprague-Dawley
Parameters: regimen Single, gender Male, age 6 weeks
Conditions: in vivo, po, 0 mg/kg, 9 h, tissue Blood, route gavage, dose level Control
Each entry below carries its reported Eos.

{"columns": ["molecule", "measurement_units", "Eos"],
 "data": [
  ["C=C[C@H]1C[N@@]2CC[C@H]1C[C@@H]2[C@@H](O)c1ccnc2ccc(OC)cc12", "%", 0.4],
  ["COc1ccc([C@@H]2Sc3ccccc3N(CCN(C)C)C(=O)[C@@H]2OC(C)=O)cc1", "%", 0.6],
  ["COc1cc2ncnc(Nc3ccc(F)c(Cl)c3)c2cc1OCCCN1CCOCC1", "%", 1],
  ["NS(=O)(=O)c1cc(C(=O)O)c(NCc2ccco2)cc1Cl [FUROSEMIDE]", "%", 0.8]
]}

---

Species: Rattus norvegicus
Assay: Open TG-GATES - Regimen: Single
Format: toxicity, organism-based, Sprague-Dawley
Parameters: regimen Single, gender Male, age 6 weeks
Details: in vivo, po, 0 mg/kg, 6 h, tissue Blood, route gavage, dose level Control
property: Mono

{"columns": ["molecule", "meas_value"],
 "data": [
  ["NS(=O)(=O)c1cc(C(=O)O)c(NCc2ccco2)cc1Cl [FUROSEMIDE]", "2.8%"],
  ["COc1cc2ncnc(Nc3ccc(F)c(Cl)c3)c2cc1OCCCN1CCOCC1", "2.4%"],
  ["CCN(CC)C(=S)SSC(=S)N(CC)CC", "2%"],
  ["CCCCNC(=O)NS(=O)(=O)c1ccc(C)cc1 [TOLBUTAMIDE]", "2%"],
  ["CN(CCOc1ccc(CC2SC(=O)NC2=O)cc1)c1ccccn1.O=C(O)/C=C\\C(=O)O (stereo unspecified) [ROSIGLITAZONE MALEATE]", "4.4%"],
  ["O=C(O)c1ccccc1Nc1ccccc1", "2.8%"]
]}

---

Items are presented alongside their recorded APTT.
Species: Rattus norvegicus
Assay: Open TG-GATES - Regimen: Daily Repeat
Type: toxicity, organism-based, Sprague-Dawley
Set-up: regimen Daily Repeat, gender Male, age 6 weeks
Settings: in vivo, po, 1000 mg/kg, […], tissue Blood, route gavage, dose level High, time 14 day

{"columns": ["compound", "APTT / s"],
 "data": [
  ["CC(S)C(=O)NCC(=O)O (centres undefined)", 24.7],
  ["CC(=O)[C@@]1(O)CC[C@H]2[C@@H]3C=C(Cl)C4=CC(=O)CC[C@]4(C)[C@H]3CC[C@@]21C", 28.9],
  ["CCCCNC(=O)NS(=O)(=O)c1ccc(C)cc1 [TOLBUTAMIDE]", 19.2],
  ["O=C(O)c1ccccc1Nc1ccccc1", 32.8]
]}

---

Reported values of Lym for individual entries
Organism: Rattus norvegicus
Assay: Open TG-GATES - Regimen: Daily Repeat
Assay type: toxicity, organism-based, Sprague-Dawley
Set-up: regimen Daily Repeat, gender Male, age 6 weeks
Details: in vivo, po, 0 mg/kg, 72 h, tissue Blood, route gavage, dose level Control, time 3 day

{"columns": ["compound_structure_string", "Lym, %"],
 "data": [
  ["CCN(CC)C(=S)SSC(=S)N(CC)CC", 81.8],
  ["Nc1ccc(Cc2ccc(N)cc2)cc1", 75],
  ["COc1ccc([C@@H]2Sc3ccccc3N(CCN(C)C)C(=O)[C@@H]2OC(C)=O)cc1", 74.6]
]}

---

Species on record: Rattus norvegicus
Experiment: Open TG-GATES - Regimen: Daily Repeat
Format: toxicity, organism-based, Sprague-Dawley
Set-up: regimen Daily Repeat, gender Male, age 6 weeks
Details: in vivo, po, 1000 mg/kg, […], tissue Blood, route gavage, dose level High, time 28 day
Quick reference: MCH of the listed items.
property: MCH (pg)

{"columns": ["molecule", "property", "meas_value"],
 "data": [
  ["CC(=O)[C@@]1(O)CC[C@H]2[C@@H]3C=C(Cl)C4=CC(=O)CC[C@]4(C)[C@H]3CC[C@@]21C", "MCH", 18.2],
  ["CCCCNC(=O)NS(=O)(=O)c1ccc(C)cc1 [TOLBUTAMIDE]", "MCH", 18.6],
  ["O=C(O)c1ccccc1Nc1ccccc1", "MCH", 19.6],
  ["CC(S)C(=O)NCC(=O)O (centres undefined)", "MCH", 19.2]
]}

---

Species: Rattus norvegicus
Experiment: Open TG-GATES - Regimen: Daily Repeat
Type: toxicity, organism-based, Sprague-Dawley
Set-up: regimen Daily Repeat, gender Male, age 6 weeks
Settings: in vivo, po, 1000 mg/kg, […], tissue Plasma, route gavage, dose level High, time 14 day

{"columns": ["compound", "TP / g/dL"],
 "data": [
  ["CC(=O)[C@@]1(O)CC[C@H]2[C@@H]3C=C(Cl)C4=CC(=O)CC[C@]4(C)[C@H]3CC[C@@]21C [CHLORMADINONE]", 6.1],
  ["CC(S)C(=O)NCC(=O)O (centres undefined) [TIOPRONIN]", 5.6],
  ["O=C(O)c1ccccc1Nc1ccccc1 [FENAMIC ACID]", 6.3],
  ["CCCCNC(=O)NS(=O)(=O)c1ccc(C)cc1 [TOLBUTAMIDE]", 5.9]
]}
